- Tested on: HepG2 cells
- ASSAY PROTOCOL: MTT cell viability assay in HepG2 cells
- Type: cell-based, human
- MEASUREMENT SETUP: 72 h, MTT assay; read-out: IC50, cytotoxicity towards HepG2 cells

>  <MOLECULE>
C[C@H](CC[C@@]1(O)O[C@H]2C[C@H]3[C@@H]4CC[C@H]5C[C@@H](O[C@@H]6O[C@H](CO)[C@H](O[C@@H]7O[C@H](CO)[C@@H](O)[C@H](O[C@@H]8OC[C@@H](O)[C@H](O)[C@H]8O)[C@H]7O[C@@H]7O[C@H](CO)[C@@H](O)[C@H](O)[C@H]7O)[C@H](O)[C@H]6O)CC[C@]5(C)[C@H]4CC[C@]3(C)[C@H]2[C@@H]1C)CO[C@@H]1O[C@H](CO)[C@@H](O)[C@H](O)[C@H]1O [Uttroside B]

>  <UNITS SYMBOL>
µM

>  <IC50>
0.5

$$$$

----------
- Tested on: HepG2 cells
- ASSAY PROTOCOL: MTT cell viability assay in HepG2 cells
- Format: cell-based, human
- MEASUREMENT SETUP: Homo sapiens, HepG2, 72 h, read-out: IC50, cytotoxicity towards HepG2 cells

>  <MOLECULE SMILES>
CNC(=O)c1cc(Oc2ccc(NC(=O)Nc3ccc(Cl)c(C(F)(F)F)c3)cc2)ccn1

>  <TARGET OR SYSTEM>
HepG2 cells

>  <IC50>
5.8 µM

$$$$
